# Experiment: Approximate solubility assessment (solvent addition technique)
# Format: physicochemical
# Test settings: acetonitrile:water (50:50% v/v), solvent Acetonitrile:water (50:50% v/v), 50° C.; read-out: Approximate Solubility (50° C.)
Non-standard residues stand in square brackets, D forms with d. Residues, ends and D or L forms follow the SMILES beside them. *: point of attachment. Dmt = Cc1cc(O)cc(C)c1C[C@H](N)C(=O)O; Boc = CC(C)(C)OC(=O)*
Value kind: solubility

Return reported solubility; argument: Cc1cc(O)cc(C)c1C[C@H](NC(=O)[C@@H](CCCNC(=N)N)NC(=O)OC(C)(C)C)C(=O)N[C@@H](CCCCNC(=O)OC(C)(C)C)C(=O)N[C@@H](Cc1ccccc1)C(N)=O [Boc-D-Arg-DMT-Lys(Boc)-Phe-NH2] (Boc-[dR][Dmt]K(Boc)F-NH2)
≥ 200 mg/mL

###

# Experiment: Approximate solubility assessment (solvent addition technique)
# Type: physicochemical
# Test settings: acetone:water (50:50% v/v), solvent Acetone:water (50:50% v/v), 50° C.; read-out: Approximate Solubility (50° C.)
Non-standard residues stand in square brackets, D forms with d. Residues, ends and D or L forms follow the SMILES beside them. *: point of attachment. Dmt = Cc1cc(O)cc(C)c1C[C@H](N)C(=O)O; Boc = CC(C)(C)OC(=O)*
Value kind: solubility (mg/mL)
Enter your answer as a number in mg/mL; do not include the unit.

Return reported solubility; argument: Cc1cc(O)cc(C)c1C[C@H](NC(=O)[C@@H](CCCNC(=N)N)NC(=O)OC(C)(C)C)C(=O)N[C@@H](CCCCNC(=O)OC(C)(C)C)C(=O)N[C@@H](Cc1ccccc1)C(N)=O [Boc-D-Arg-DMT-Lys(Boc)-Phe-NH2] (Boc-[dR][Dmt]K(Boc)F-NH2)
58

###

# Experiment: Approximate solubility assessment (solvent addition technique)
# Type: physicochemical
# Test settings: acetone, solvent Acetone, 50° C.; read-out: Approximate Solubility (50° C.)
Non-standard residues stand in square brackets, D forms with d. Residues, ends and D or L forms follow the SMILES beside them. *: point of attachment. Dmt = Cc1cc(O)cc(C)c1C[C@H](N)C(=O)O; Boc = CC(C)(C)OC(=O)*
Value kind: solubility

Return reported solubility; argument: Cc1cc(O)cc(C)c1C[C@H](NC(=O)[C@@H](CCCNC(=N)N)NC(=O)OC(C)(C)C)C(=O)N[C@@H](CCCCNC(=O)OC(C)(C)C)C(=O)N[C@@H](Cc1ccccc1)C(N)=O [Boc-D-Arg-DMT-Lys(Boc)-Phe-NH2] (Boc-[dR][Dmt]K(Boc)F-NH2)
< 10000 µg/mL

###

# Experiment: Approximate solubility assessment (solvent addition technique)
# Format: physicochemical
# Test settings: ethyl acetate, solvent Ethyl acetate, 50° C.; read-out: Approximate Solubility (50° C.)
Non-standard residues stand in square brackets, D forms with d. Residues, ends and D or L forms follow the SMILES beside them. *: point of attachment. Dmt = Cc1cc(O)cc(C)c1C[C@H](N)C(=O)O; Boc = CC(C)(C)OC(=O)*
Value kind: solubility

Return reported solubility; argument: Cc1cc(O)cc(C)c1C[C@H](NC(=O)[C@@H](CCCNC(=N)N)NC(=O)OC(C)(C)C)C(=O)N[C@@H](CCCCNC(=O)OC(C)(C)C)C(=O)N[C@@H](Cc1ccccc1)C(N)=O [Boc-D-Arg-DMT-Lys(Boc)-Phe-NH2] (Boc-[dR][Dmt]K(Boc)F-NH2)
< 10000 µg/mL

###

# Experiment: Approximate solubility assessment (solvent addition technique)
# Assay type: physicochemical
# Test settings: DMSO:acetone (50:50% v/v), solvent DMSO:acetone (50:50% v/v), 50° C.; read-out: Approximate Solubility (50° C.)
Non-standard residues stand in square brackets, D forms with d. Residues, ends and D or L forms follow the SMILES beside them. *: point of attachment. Dmt = Cc1cc(O)cc(C)c1C[C@H](N)C(=O)O; Boc = CC(C)(C)OC(=O)*
Value kind: solubility

Return reported solubility; argument: Cc1cc(O)cc(C)c1C[C@H](NC(=O)[C@@H](CCCNC(=N)N)NC(=O)OC(C)(C)C)C(=O)N[C@@H](CCCCNC(=O)OC(C)(C)C)C(=O)N[C@@H](Cc1ccccc1)C(N)=O [Boc-D-Arg-DMT-Lys(Boc)-Phe-NH2] (Boc-[dR][Dmt]K(Boc)F-NH2)
≥ 200 mg/mL

###

# Experiment: Approximate solubility assessment (solvent addition technique)
# Type: physicochemical
# Test settings: ethanol:water (50:50% v/v), solvent Ethanol:water (50:50% v/v), 50° C.; read-out: Approximate Solubility (50° C.)
Non-standard residues stand in square brackets, D forms with d. Residues, ends and D or L forms follow the SMILES beside them. *: point of attachment. Dmt = Cc1cc(O)cc(C)c1C[C@H](N)C(=O)O; Boc = CC(C)(C)OC(=O)*
Value kind: solubility

Return reported solubility; argument: Cc1cc(O)cc(C)c1C[C@H](NC(=O)[C@@H](CCCNC(=N)N)NC(=O)OC(C)(C)C)C(=O)N[C@@H](CCCCNC(=O)OC(C)(C)C)C(=O)N[C@@H](Cc1ccccc1)C(N)=O [Boc-D-Arg-DMT-Lys(Boc)-Phe-NH2] (Boc-[dR][Dmt]K(Boc)F-NH2)
~100 mg/mL

###

# Experiment: Approximate solubility assessment (solvent addition technique)
# Assay type: physicochemical
# Test settings: all other solvent systems: acetone, dichloromethane, 2-butanol, 2-propanol, methyl ethyl ketone, toluene, THF, ethyl acetate, acetonitrile; read-out: Poor solubility
Non-standard residues stand in square brackets, D forms with d. Residues, ends and D or L forms follow the SMILES beside them. *: point of attachment. Dmt = Cc1cc(O)cc(C)c1C[C@H](N)C(=O)O; Boc = CC(C)(C)OC(=O)*
Value kind: solubility

Return reported solubility; argument: Cc1cc(O)cc(C)c1C[C@H](NC(=O)[C@@H](CCCNC(=N)N)NC(=O)OC(C)(C)C)C(=O)N[C@@H](CCCCNC(=O)OC(C)(C)C)C(=O)N[C@@H](Cc1ccccc1)C(N)=O [Boc-D-Arg-DMT-Lys(Boc)-Phe-NH2] (Boc-[dR][Dmt]K(Boc)F-NH2)
≤ 17 mg/mL

###

# Experiment: Approximate solubility assessment (solvent addition technique)
# Assay type: physicochemical
# Test settings: methyl ethyl ketone, solvent Methyl ethyl ketone, 50° C.; read-out: Approximate Solubility (50° C.)
Non-standard residues stand in square brackets, D forms with d. Residues, ends and D or L forms follow the SMILES beside them. *: point of attachment. Dmt = Cc1cc(O)cc(C)c1C[C@H](N)C(=O)O; Boc = CC(C)(C)OC(=O)*
Value kind: solubility

Return reported solubility; argument: Cc1cc(O)cc(C)c1C[C@H](NC(=O)[C@@H](CCCNC(=N)N)NC(=O)OC(C)(C)C)C(=O)N[C@@H](CCCCNC(=O)OC(C)(C)C)C(=O)N[C@@H](Cc1ccccc1)C(N)=O [Boc-D-Arg-DMT-Lys(Boc)-Phe-NH2] (Boc-[dR][Dmt]K(Boc)F-NH2)
< 10000 µg/mL

###

# Experiment: Approximate solubility assessment (solvent addition technique)
# Assay type: physicochemical
# Test settings: toluene, solvent Toluene, 50° C.; read-out: Approximate Solubility (50° C.)
# Experimental: Approximate Solubility Assessment of Boc-D-Arg-DMT-Lys(Boc)-Phe-NH2 The solubility screen was carried out as follows: • Approximately 20 mg of Boc-D-Arg-DMT-Lys(Boc)-Phe-NH2 was weighed out into each vial. • Each solvent/solvent mixture was added to the appropriate vial in 5 volume aliquots (100 μL). • In between additions, the sample was stirred at 50° C. The solubility assessment was estimated by a solvent addition technique, heating at 50° C. between aliquots (see Table 9).
Non-standard residues stand in square brackets, D forms with d. Residues, ends and D or L forms follow the SMILES beside them. *: point of attachment. Dmt = Cc1cc(O)cc(C)c1C[C@H](N)C(=O)O; Boc = CC(C)(C)OC(=O)*
Value kind: solubility

Return reported solubility; argument: Cc1cc(O)cc(C)c1C[C@H](NC(=O)[C@@H](CCCNC(=N)N)NC(=O)OC(C)(C)C)C(=O)N[C@@H](CCCCNC(=O)OC(C)(C)C)C(=O)N[C@@H](Cc1ccccc1)C(N)=O [Boc-D-Arg-DMT-Lys(Boc)-Phe-NH2] (Boc-[dR][Dmt]K(Boc)F-NH2)
< 10000 µg/mL

###

# Experiment: Approximate solubility assessment (solvent addition technique)
# Format: physicochemical
# Test settings: DMSO:water (50:50% v/v), solvent DMSO:water (50:50% v/v), 50° C.; read-out: Approximate Solubility (50° C.)
Non-standard residues stand in square brackets, D forms with d. Residues, ends and D or L forms follow the SMILES beside them. *: point of attachment. Dmt = Cc1cc(O)cc(C)c1C[C@H](N)C(=O)O; Boc = CC(C)(C)OC(=O)*
Value kind: solubility (mg/mL)
Enter your answer as a number in mg/mL; do not include the unit.

Return reported solubility; argument: Cc1cc(O)cc(C)c1C[C@H](NC(=O)[C@@H](CCCNC(=N)N)NC(=O)OC(C)(C)C)C(=O)N[C@@H](CCCCNC(=O)OC(C)(C)C)C(=O)N[C@@H](Cc1ccccc1)C(N)=O [Boc-D-Arg-DMT-Lys(Boc)-Phe-NH2] (Boc-[dR][Dmt]K(Boc)F-NH2)
24
